- test.protocol: Toxicity in Wistar rat administered qd via oral gavage with repeated dose for 28 days
- Format: organism-based
- experimental.context: in vivo
reported.endpoint: LD50 at 672 h

In: Item under review: CN1CCC(C(=O)c2cncc(-c3cc(Cl)cc(Cl)c3)c2)C1=O (stereo unspecified) . Reported LD50 at 672 h?
Out: > 2000 mg/kg

====

- test.protocol: Half life in Wistar rat at 5 mg/kg, po
- Type: ADME, organism-based
- experimental.context: in vivo
reported.endpoint: half-life

In: What half-life value was documented for this molecule, CN1CCC(C(=O)c2cncc(-c3cc(Cl)cc(Cl)c3)c2)C1=O (stereo unspecified) ?
Out: > 24 h
